Origin of measurements: ChEMBL document CHEMBL6083260

biological target: Glutamate NMDA receptor; GRIN1/GRIN2B (Homo sapiens, UniProt Q05586+Q13224); assay: Antagonist activity at human GluN1/GluN2B receptor expressed in HEK293 cells assessed as inhibition of L-glutamate induced response at 3 uM at -60 mV membrane potential by patch clamp electrophysiology analysis; format: cell-based
Field: inhibition. Provide a value for each of the molecules that follow.
One number for each entry, in %.

Take a look at these entries with their results.
> print(dat)
                          smiles.str  reading
1   CN1CCN(C2c3ccccc3CCc3ccccc32)CC1     9.49
2    c1ccc2c(c1)CCc1ccccc1C2N1CCCCC1      5.2
3  CCN1CCN(C2c3ccccc3CCc3ccccc32)CC1     5.22

Note: attention shifts to another entry.
Task item: Given the molecule `c1ccc2c(c1)CCc1ccccc1C2N1CCOCC1` , what is its reported inhibition?
Reply: 3.43
